experiment: in vitro; conditions: human, HepG2 cells
Description: Cytotoxicity against human HepG2 cells assessed as reduction in cell viability
Returns: string. Value is criterion met if measured IC50 is below 60 µM, and criterion not met if it is greater than or equal to it.

Below, 5 compounds whose answers are already recorded.
[
  {
    "compound": "CCc1c(C)nc(-n2nc(C)cc2NC(=O)COc2cccc(C)c2)[nH]c1=O",
    "label value": "criterion met"
  },
  {
    "compound": "CCc1c(C)nc(-n2nc(C)cc2NC(=O)C2CC(=O)N(c3ccc(C)cc3)C2)[nH]c1=O (stereo not given)",
    "label value": "criterion not met"
  },
  {
    "compound": "CCc1cc(=O)[nH]c(-n2nc(C)cc2NC(=O)c2cccc([N+](=O)[O-])c2)n1",
    "label value": "criterion met"
  },
  {
    "compound": "NNC(=O)c1ccncc1",
    "label value": "criterion not met"
  },
  {
    "compound": "CCOC(=O)C(=O)Nc1cc(C)nn1-c1nc(C)c(CC)c(=O)[nH]1",
    "label value": "criterion not met"
  }
]

Threshold test, IC50 < 60 µM: Cc1cccc(C(=O)Nc2cc(C)nn2-c2nc3ccccc3c(=O)[nH]2)c1
criterion not met

Threshold test, IC50 < 60 µM: CCC(CC)C(=O)Nc1nnc(C2CC(=O)N(c3ccc(C)c(Cl)c3)C2)s1 (stereo not given)
criterion met

Threshold test, IC50 < 60 µM: CCc1ccc(N2CC(C(=O)Nc3ccccc3C(=O)Nc3nnc(CC)s3)CC2=O)cc1 (stereo not given)
criterion not met

Threshold test, IC50 < 60 µM: CC(=O)N1N=C(c2c(O)n(-c3ccccc3C)c(=O)[nH]c2=O)CC1c1ccccc1 (stereo not given)
criterion met

Threshold test, IC50 < 60 µM: CCc1c(C)nc(-n2nc(C)cc2NC(=O)CCc2ccc(OC)cc2)[nH]c1=O
criterion not met
